Target: T1, Vaccinia Virus, Western Reserve, L1R Protein with C-Terminal Histidine Tag (Vaccinia virus, strain Western Reserve, UniProt P07612)
T1 construct: also called L1 antigen; recombinant L1 antigen; source: obtained through BEI Resources (NR-2625), recombinant from baculovirus
Assay: SPR; […] (10 µg/ml, […], dissociation 600 s; […]
Conditions: both partners purified
Please respond with reported pKd for every item in the list.
Numbers only, as −log10 of the molar value.

binder	pKd
L1-G2 (VHH, llama sdAb of the L1-H7 family; also called sdAb L1-G2) VHH: EVQLQASGGGLVQAGGSLRLSCTASGRAFSTTNMGWFRQAPGKEREFVTRVNWSGGVTSYADSVKGRFTLSRDNTKNTVYLQMDSLKPEDTAVYYCAGSTVWSTDRKHYNYWGQGTQVTVSS	8.72
L1-E6 (VHH, llama sdAb of the L1-H7 family; also called sdAb L1-E6) VHH: EVQLQASGGGLVQAGGSLRLSCIASGRAFSTTNMGWFRQAPGKEREFVTRVNWSGGVTSYADPVKGRFTLSRDNTKNTVYLQMNSLKPEDTAVYYCAGSTVWSTDGAHYNYWGQGTQVTVSS	8.59

Next:
# input Entry under review: L1-E2 (VHH, llama sdAb, only member of the L1-E2 family; also called sdAb L1-E2) VHH: EVQLQASGGGLVQPGGSLRLSCAASGFSISSATMSWVRQAPGKGLEWVSTVQDGAGIISSADSAKARFTISRDSAKNTLYLQMNSLKPEDTAVYYCRTVVFGRILRGQGTQVTVSS . Reported pKd?
# output 9.15
